target: A139 iCAPS (purified human CB1 with ICL3 native sequence replaced with BRIL, in lipid bilayer) (human) (UniProt P21554); test: ELISA, purified IgG on CB1 iCAPS
Sequence (P21554 whole entry): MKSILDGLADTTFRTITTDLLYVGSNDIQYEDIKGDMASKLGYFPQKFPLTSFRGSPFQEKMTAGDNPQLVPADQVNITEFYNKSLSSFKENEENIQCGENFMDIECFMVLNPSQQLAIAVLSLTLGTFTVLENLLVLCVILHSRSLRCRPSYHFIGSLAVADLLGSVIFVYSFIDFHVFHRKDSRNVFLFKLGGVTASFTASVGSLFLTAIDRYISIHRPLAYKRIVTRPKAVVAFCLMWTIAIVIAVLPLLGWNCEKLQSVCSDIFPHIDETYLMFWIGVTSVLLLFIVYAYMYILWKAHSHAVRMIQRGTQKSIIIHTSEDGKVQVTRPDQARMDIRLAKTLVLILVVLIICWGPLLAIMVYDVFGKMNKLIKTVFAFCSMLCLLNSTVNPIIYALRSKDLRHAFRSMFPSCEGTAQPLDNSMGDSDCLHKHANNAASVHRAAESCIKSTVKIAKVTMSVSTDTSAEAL
Could you please report measured EC50 for the items listed next?
Numbers only, in nM.

# binder, EC50 / nM
data = [
    ("PA2LR3-P2E5 (chimeric) (antibody, V domains shown) VH: EVQLQQSGAELVRPGSSVKISCKASGYAFRDYWMNWVKQRPGQGLEWIGQIYPGDGATNYIGKFKGKATLTADKSSSTAYMQLSSLTSEDSAVYFCARSHGNYFPYWGHGTLVTVSA VL: QIVLTQSPAIMSASLGERVTMTCTASSSVSSSYLHWYQQKPGSSPKLWIYSTSNLASGVPARFSGSGSGTSYSLTISSMEAEDAATYYCQQWSSYPLTFGAGTKLELKR", 3.2),
]

Challenge: Would you mind telling me what EC50 value was observed for PA2LR3-P4B1 (chimeric) (antibody, human IgG1, kappa, V domains shown) VH: EVQLQQSGAELVRPGSSVKISCKASGFAFSNYWMNWVKQRPGQGLEWIGQIYPGDGDTNFNGKFKGRAILTADISSNTAYMQLSSLTSEDSAVYFCARSHGNYFPYWGQGTLVTVSA VL: QIVLTQSPAIMSASLGERVTMTCTASSSVSSSYLHWYQQKPGSSPKLWIYSTSNLASGVPARFSGSGSGTSYSLTISSMEAEDAATYYCHQYHRSPLTFGAGTKLELKR ?
Response given: 1.41

The measurements presented in this section are drawn from patent US20230348589A1.
